Origin of the recorded values: patent US5302399A

assayInfo: clinical
Set-up: species or system healthy human adults
conditionNotes: human, in vivo, po
measuredParameter: Tmax

Q: Which Tmax is listed for CC(C)NCC(O)COc1cccc2[nH]ccc12 (stereo not shown) ?
Ans: ~1 h

* * *

assayInfo: in vivo
Set-up: species or system Male beagle dogs
conditionNotes: dog, po, 5 mg/kg
measuredParameter: AUC at 12 h (ng·h/mL)
Record the value in ng·h/mL, omitting the unit from your answer.

Q: Which AUC at 12 h is listed for CC(C)NCC(O)COc1cccc2[nH]ccc12 (stereo not shown) [Pindolol powder, pindolol] ?
Ans: 311

* * *

assayInfo: clinical
Set-up: species or system healthy human adults
conditionNotes: human, in vivo, po
measuredParameter: MRT (h)
Record the value in h, omitting the unit from your answer.

Q: Which MRT is listed for CC(C)NCC(O)COc1cccc2[nH]ccc12 (stereo not shown) ?
Ans: 3.82
